- Assay Method Text: growth inhibition, single agents and combos, LFS_MB_1R, cell-based, cisplatin or BGB combos, synergistic combos for chromothripsis tumors (AID 1671452);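 further: cells exposed for 96 hours before readout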
- Reported Conditions: LFS_MB_1R medulloblastoma cells, measured here: combination with cisplatin, at 5 µM, stronger effect = higher value
Where inhibition equals or exceeds -10%, the correct label is Y; where it does not, the label is N.

Decide: inhibition of C=C1CCC(O)CC1=CC=C1CCCC2(C)C1CCC2C(C)C=CC(C)C(C)C (stereo not given) >= -10%? Y

Decide: inhibition of CC(=O)C1(O)Cc2c(O)c3c(c(O)c2C(OC2CC(N)C(O)C(C)O2)C1)C(=O)c1ccccc1C3=O (stereo not given) >= -10%? Y

Decide: inhibition of C=C1C(=O)O[C@@H]2C=C(C)CCC=C(C)CC[C@@H]12 >= -10%? Y

Decide: inhibition of O=C(CCCCCCC(=O)NO)NO >= -10%? N

Decide: inhibition of Nc1ncn(C2OC(CO)C(O)C2O)c(=O)n1 (stereo not given) >= -10%? N

Decide: inhibition of COc1ccc(-c2nc(-c3cc(C(F)(F)F)cc(C(F)(F)F)c3)n(Cc3ccc(C(N)=O)cc3)c2-c2ccc(OC)cc2)cc1 >= -10%? N

Decide: inhibition of Nc1nc(NC2CC2)cc(-c2cccc(Cl)c2Cl)n1 >= -10%? N

Decide: inhibition of CO[C@H]1/C=C/O[C@@]2(C)Oc3c(C)c(O)c4c(O)c(c5c(c4c3C2=O)=NC2(CCN(CC(C)C)CC2)N=5)NC(=O)/C(C)=C\C=C\[C@H](C)[C@H](O)[C@@H](C)[C@@H](O)[C@@H](C)[C@H](OC(C)=O)[C@@H]1C >= -10%? Y

Decide: inhibition of CC(C)C(=O)SCCCCCCC(=O)Nc1nc(-c2ccccc2)cs1 >= -10%? Y

Decide: inhibition of CCC(Sc1nnc2c3ccccc3n(CC)c2n1)C(=O)Nc1ccccc1OC (stereo not given) >= -10%? N

Decide: inhibition of O=c1cc(-c2ccc(O)cc2)[nH]c(=S)[nH]1 >= -10%? Y

Decide: inhibition of NC(=O)c1cccc2cn(-c3ccc(C4CCCNC4)cc3)nc12 (stereo not given) >= -10%? N

Decide: inhibition of O=c1[nH]cnc2c1ncn2C1CCC(CO)O1 (stereo not given) >= -10%? N

Decide: inhibition of CC(C)c1ccc(-c2cc(=O)c3ccccc3o2)cc1 >= -10%? Y

Decide: inhibition of Cc1cc(C#N)cc(C)c1Oc1nc(Nc2ccc(C#N)cc2)nc(N)c1Br >= -10%? Y

Decide: inhibition of O=c1ccn(C2CC(O)C(CO)O2)c(=O)[nH]1 (stereo not given) >= -10%? N

Decide: inhibition of Nc1ccccc1NC(=O)c1cnccn1 >= -10%? N

Decide: inhibition of COc1cccc2c1C(=O)c1c(O)c3c(c(O)c1C2=O)CC(O)(C(=O)CO)CC3OC1CC(N)C(OC2CCCCO2)C(C)O1 (stereo not given) >= -10%? Y

Decide: inhibition of CC1CN(c2c(F)c(N)c3c(=O)c(C(=O)O)cn(C4CC4)c3c2F)CC(C)N1 (stereo not given) >= -10%? Y

Decide: inhibition of Cc1c(Br)cc(NCC(=O)N/N=C/c2cc([N+](=O)[O-])ccc2O)cc1Br >= -10%? Y
